Tested on: NCI-H3255 cells (EGFR L858R point mutation)
Assay: Cell growth inhibition, methylene blue assay, NCI-H3255
Type: cell-based, human
Settings: NCI-H3255, Activating (L858R point mutation), 72 hours, mean±SD
attribute.measured: IC50 (nM)
Write the value in nM as a bare number.

Exercise: Looking for the measured IC50 of C#Cc1cccc(Nc2ncnc3cc(OCCOC)c(OCCF)cc23)c1 [6-O-FEE, 6-O-fluoroethylerlotinib] , can you help?
Key: 33
